Test system: Escherichia coli TOP10;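 note: peptides expressed intracellularly from a pBAD plasmid library in pooled LB shake-flask culture, induced with 0.3% L-arabinose, DNA abundance read by NGS, three biological replicates, DESeq2 with apeglm shrinkage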
protocol_notes: shrunken log2 fold change of peptide-encoding DNA abundance (4.5 h post-induction vs induction); higher = less antimicrobial activity (less host growth inhibition)
assay_conditions: time post-induction: 4.5 h; library: site-saturation at positions 5, 18, 19, 20
Would you mind labelling by shrunken log2 fold change? At or over 0.0002 is fulfilled, under is not fulfilled.

(Q) Is shrunken log2 fold change for RRIRFRPPRLPRPRPRPNKEPRP at or above 0.0002?
(A) fulfilled

(Q) Then RRIRDRPPRLPRPRPRPNDPPRP ?
(A) not fulfilled

(Q) Then this sequence: RRIRERPPRLPRPRPRPYSIPRP
(A) not fulfilled

(Q) Can you check RRIRIRPPRLPRPRPRPKDLPRP next?
(A) fulfilled

(Q) Also, RRIRCRPPRLPRPRPRPWYVPRP please.
(A) not fulfilled

(Q) Now give it for RRIRGRPPRLPRPRPRPKGWPRP too.
(A) fulfilled

(Q) Try this sequence next: RRIRWRPPRLPRPRPRPNQSPRP
(A) not fulfilled

(Q) For RRIRNRPPRLPRPRPRPWYWPRP then?
(A) not fulfilled

(Q) Also, RRIRKRPPRLPRPRPRPTGFPRP please.
(A) fulfilled

(Q) Another sequence to look at: RRIRGRPPRLPRPRPRPGMYPRP
(A) fulfilled

(Q) Query RRIRHRPPRLPRPRPRPWSCPRP next
(A) not fulfilled

(Q) Another: RRIRDRPPRLPRPRPRPKPSPRP
(A) fulfilled

(Q) Also, RRIRTRPPRLPRPRPRPQIIPRP please.
(A) not fulfilled

(Q) Same question for RRIRTRPPRLPRPRPRPAVYPRP please.
(A) not fulfilled

(Q) Now give it for RRIRGRPPRLPRPRPRPLQTPRP too.
(A) fulfilled

(Q) Same lookup for RRIRMRPPRLPRPRPRPFQCPRP , please.
(A) not fulfilled

(Q) Same for RRIRYRPPRLPRPRPRPWLMPRP
(A) not fulfilled

(Q) Would you mind doing RRIRFRPPRLPRPRPRPPPRPRP as well?
(A) fulfilled

(Q) Now consider RRIRARPPRLPRPRPRPTHDPRP .
(A) fulfilled

(Q) Now try RRIRHRPPRLPRPRPRPSMYPRP .
(A) not fulfilled

(Q) Let us now turn to RRIRPRPPRLPRPRPRPAYNPRP
(A) not fulfilled

(Q) And then RRIRRRPPRLPRPRPRPTVSPRP , what is it?
(A) fulfilled

(Q) Next up: RRIRSRPPRLPRPRPRPPPNPRP
(A) fulfilled

(Q) Okay, and RRIRFRPPRLPRPRPRPIPTPRP ?
(A) fulfilled

(Q) Okay, and RRIRNRPPRLPRPRPRPPYMPRP ?
(A) not fulfilled

(Q) Let us now turn to RRIRMRPPRLPRPRPRPESWPRP
(A) fulfilled

(Q) Repeat for the following sequence: RRIRSRPPRLPRPRPRPQSRPRP
(A) fulfilled

(Q) Now the sequence RRIRYRPPRLPRPRPRPHNYPRP
(A) not fulfilled

(Q) Same again, this time with RRIRMRPPRLPRPRPRPSPAPRP
(A) fulfilled

(Q) Next sequence up: RRIRQRPPRLPRPRPRPCYYPRP
(A) not fulfilled

(Q) // repeat for RRIRVRPPRLPRPRPRPHDWPRP and report
(A) fulfilled

(Q) Same read-out for RRIRMRPPRLPRPRPRPWWEPRP ?
(A) not fulfilled
